molecular target: human recombinant mGluR5 (Homo sapiens, UniProt P41594); construct: hygromycin and geneticin selection; assay: positive modulation of mGluR5, calcium based FLIPR assay; conditions: HEK 293 cell line expressing human recombinant mGluR5; Ca2+ peak height after glutamate at approximately 5% basal stimulation; nonlinear regression
Sequence (P41594 21-1212): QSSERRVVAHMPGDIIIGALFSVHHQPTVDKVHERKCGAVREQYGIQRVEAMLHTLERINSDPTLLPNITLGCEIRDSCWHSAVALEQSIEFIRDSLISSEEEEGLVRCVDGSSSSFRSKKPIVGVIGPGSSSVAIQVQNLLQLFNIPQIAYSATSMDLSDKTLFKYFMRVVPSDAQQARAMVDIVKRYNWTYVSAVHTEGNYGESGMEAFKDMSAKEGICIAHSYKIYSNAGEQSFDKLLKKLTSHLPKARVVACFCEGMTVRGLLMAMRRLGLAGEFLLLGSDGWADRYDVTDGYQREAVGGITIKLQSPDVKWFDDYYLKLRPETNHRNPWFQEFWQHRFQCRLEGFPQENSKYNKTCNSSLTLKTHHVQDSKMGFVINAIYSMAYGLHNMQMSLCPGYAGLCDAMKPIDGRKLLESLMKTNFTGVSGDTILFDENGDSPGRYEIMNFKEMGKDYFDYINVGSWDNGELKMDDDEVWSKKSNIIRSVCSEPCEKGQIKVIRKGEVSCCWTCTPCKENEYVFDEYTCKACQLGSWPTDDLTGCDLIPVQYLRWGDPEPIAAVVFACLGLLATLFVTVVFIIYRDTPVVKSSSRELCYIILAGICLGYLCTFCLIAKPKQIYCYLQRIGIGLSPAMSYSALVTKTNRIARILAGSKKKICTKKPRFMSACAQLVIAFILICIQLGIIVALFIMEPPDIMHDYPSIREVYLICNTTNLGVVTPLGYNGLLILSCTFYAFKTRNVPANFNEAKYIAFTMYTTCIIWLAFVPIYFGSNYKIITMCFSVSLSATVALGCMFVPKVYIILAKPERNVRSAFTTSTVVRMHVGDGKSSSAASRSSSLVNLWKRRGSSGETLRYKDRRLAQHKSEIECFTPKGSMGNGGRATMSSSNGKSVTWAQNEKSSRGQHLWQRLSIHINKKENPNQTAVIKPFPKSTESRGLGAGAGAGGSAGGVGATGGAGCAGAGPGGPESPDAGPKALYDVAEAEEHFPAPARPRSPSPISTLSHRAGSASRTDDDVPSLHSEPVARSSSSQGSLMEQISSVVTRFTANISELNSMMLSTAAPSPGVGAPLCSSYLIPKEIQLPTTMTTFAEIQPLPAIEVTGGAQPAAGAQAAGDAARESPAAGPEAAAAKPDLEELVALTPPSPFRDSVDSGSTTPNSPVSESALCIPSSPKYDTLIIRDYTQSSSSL
pEC50: −log10 of the molar value.
Measured pEC50, listed per entry.
property: pEC50

- COc1ccc2oc(C)c(C(=O)N3CCN(C(=O)c4ncn(-c5ccccc5)n4)CC3C)c2c1 (stereo not shown) [Example 242]: 6.94
- COc1ccc2c(C)c(C(=O)N3CCN(C(=O)c4ncn(-c5cccc(Cl)c5)n4)C(C)(C)C3)oc2c1 [Example 47]: 6.74
- COc1cccc(C(=O)N2CCN(C(=O)c3nnn(-c4ccccc4F)n3)C(C)(C)C2)n1 [Example 201]: 6.99
- CC1(C)CN(C(=O)c2cc(Cl)ccc2F)CCN1C(=O)c1ncn(-c2cccc(Cl)c2)n1 [Example 73]: 6.79
- COc1cccc(C(=O)N2CCN(C(=O)c3ncn(-c4cccc(Cl)c4)n3)C[C@@H]2C)n1 [Example 252]: 6.56
- CC1CN(C(=O)c2ncn(-c3cccc(Cl)c3)n2)CCN1C(=O)c1cccc2c1OCO2 (stereo not shown) [Example 220]: 6.10
- CCOc1cccc(C(=O)N2CCN(C(=O)c3ncn(-c4cccc(Cl)c4)n3)C(C)(C)C2)n1 [Example 62]: 6.06

---

target: human recombinant mGluR5 (Homo sapiens); construct: hygromycin and geneticin selection; assay: positive modulation of mGluR5, calcium based FLIPR assay; details: HEK 293 cell line expressing human recombinant mGluR5; Ca2+ peak height after glutamate at approximately 5% basal stimulation; nonlinear regression
Measured EC50, listed per entry.
property: EC50 (nM)

• COc1cccc(C(=O)N2CCN(C(=O)c3ncn(-c4ccccc4)n3)C(C)(C)C2)n1 [Example 109] = 128
• Cc1cccc(-n2cnc(C(=O)N3CCN(C(=O)c4c(C)oc5ccccc45)CC3(C)C)n2)c1 [Example 10] = 95
• O=C(c1cccc(Cl)c1)N1CCN(C(=O)c2ncn(-c3ccccc3)n2)C2(CCCC2)C1 [Example 309] = 145

---

Molecular target: human recombinant mGluR5 (Homo sapiens)
Construct: hygromycin and geneticin selection
Test: positive modulation of mGluR5, calcium based FLIPR assay
Settings: HEK 293 cell line expressing human recombinant mGluR5; Ca2+ peak height after glutamate at approximately 5% basal stimulation; nonlinear regression
Experimental: The positive modulation of mGluR5 is measured in a HEK 293 cell line expressing human recombinant mGluR5 and is detected with calcium based FLIPR assay. […] 20 μl of each compound solution are then transferred to the assay plate and the Ca2+ kinetic is measured to determine any intrinsic compound activity. […] The peak height of the Ca release related fluorescence signal (9-66) is used for the EC50. The EC50 of the modulation is calculated over a nonlinear regression with GraphPad Prism (Table 1).
Please use TRUE for EC50 under 300 nM and FALSE for everything else, ties included.

- CC1(C)CN(C(=O)c2cc(Cl)c3c(c2)OCCO3)CCN1C(=O)c1ncn(-c2cccc(F)c2)n1: TRUE
- COc1cccc(C(=O)N2CCN(C(=O)c3ncn(-c4cccc(C)c4)n3)C(C)C2)n1 (stereo not shown): TRUE
- CC1(C)CN(C(=O)c2cccc(C3CC3)n2)CCN1C(=O)c1ncn(-c2cccc(Cl)c2)n1: TRUE
- COc1cc(Cl)cc(C(=O)N2CCN(C(=O)c3nnn(-c4cccc(F)c4)n3)C(C)(C)C2)n1: TRUE
- CC1CN(C(=O)c2sc3ccccc3c2Cl)CCN1C(=O)c1ncn(-c2cccc(Cl)c2)n1 (stereo not shown): FALSE
- Cc1cccc(-n2cnc(C(=O)N3CCN(C(=O)c4cc(Br)c(Br)o4)[C@@H](C)C3)n2)c1: TRUE
- COc1ccc(C(=O)N2CCN(C(=O)c3ncn(-c4cccc(Cl)c4)n3)C(C)(C)C2)s1: TRUE
- CC1(C)CN(C(=O)c2cccc(Cl)c2)CCN1C(=O)c1ncn(-c2ccccc2)n1: TRUE
- Cc1ccc(C(=O)N2CCN(C(=O)c3ncn(-c4cccc(Cl)c4)n3)C(C)(C)C2)cc1Cl: TRUE
- CC1(C)CN(C(=O)c2cccc(C3CC3)n2)CCN1C(=O)c1ncn(-c2ccccc2)n1: TRUE
- COc1cccc(C(=O)N2CCN(C(=O)c3ncn(-c4cccc(Cl)c4)n3)C(C)(C)C2)c1: TRUE
- CC(=O)Nc1ccc2oc(C(=O)N3CCN(C(=O)c4ncn(-c5ccccc5)n4)C(C)(C)C3)c(C)c2c1: FALSE
- COc1cc(C(=O)N2CCN(C(=O)c3ncn(-c4cccc(Cl)c4)n3)C(C)C2)ccc1C (stereo not shown): FALSE
- CC1(C)CN(C(=O)c2ccc(Cl)c(Cl)c2)CCN1C(=O)c1ncn(-c2cccc(Cl)c2)n1: TRUE
- COc1nc(C(=O)N2CCN(C(=O)c3ncn(-c4cccc(Cl)c4)n3)C(C)(C)C2)cc2cc(F)ccc12: TRUE
- CC1(C)CN(C(=O)c2cccc(C3CC3)n2)CCN1C(=O)c1nnn(-c2cccc(F)c2)n1: TRUE
- COCc1c(C(=O)N2CCN(C(=O)c3ncn(-c4ccccc4)n3)C(C)(C)C2)oc2ccccc12: TRUE
- CC1CN(C(=O)c2ncn(-c3cccc(Cl)c3)n2)CCN1C(=O)c1cc(Cl)c2c(c1)OCCO2 (stereo not shown): TRUE
- COc1cccc(C(=O)N2CCN(C(=O)c3ncn(-c4cc(F)ccc4F)n3)C(C)(C)C2)n1: TRUE
- Cc1cccc(C(=O)N2CCN(C(=O)c3ncn(-c4cccc(Cl)c4)n3)C(C)(C)C2)n1: FALSE
- CC1(C)CN(C(=O)c2cccc(Cl)c2)CCN1C(=O)c1ncn(-c2cccc(Cl)c2)n1: TRUE
- COc1cccc(C(=O)N2CCN(C(=O)c3ncn(-c4ccc(F)c(C)c4)n3)C(C)(C)C2)n1: FALSE
- CC1CN(C(=O)c2ncn(-c3cccc(Cl)c3)n2)CCN1C(=O)c1sc2ccccc2c1Cl (stereo not shown): FALSE
- CC1(C)CN(C(=O)c2cccc(-c3ccn[nH]3)n2)CCN1C(=O)c1ncn(-c2cccc(Cl)c2)n1: TRUE
- CC1(C)CN(C(=O)c2cc3ccccc3c(OC3CCCC3)n2)CCN1C(=O)c1ncn(-c2ccccc2)n1: TRUE
